Sourced from patent US6713265

Tested Target: T1, human Y2 receptor (human, UniProt P49146 1-381)
T1 construct: whole, on cells
T1 sequence (looked up): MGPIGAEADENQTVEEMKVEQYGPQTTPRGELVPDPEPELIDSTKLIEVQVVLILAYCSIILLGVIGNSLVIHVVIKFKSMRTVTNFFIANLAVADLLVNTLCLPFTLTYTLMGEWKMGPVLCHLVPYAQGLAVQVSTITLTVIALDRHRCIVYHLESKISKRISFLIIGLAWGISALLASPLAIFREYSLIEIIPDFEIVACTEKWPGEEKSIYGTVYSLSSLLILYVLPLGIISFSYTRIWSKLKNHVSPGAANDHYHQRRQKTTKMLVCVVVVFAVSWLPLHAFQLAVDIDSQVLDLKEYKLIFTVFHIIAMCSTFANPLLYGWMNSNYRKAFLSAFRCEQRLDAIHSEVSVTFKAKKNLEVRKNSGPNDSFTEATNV
Experiment Summary: 125I-PYY displacement, COS-7 membranes
Reported Property: Ki (nM)

binder="HYINLITRQRY (peptide, UniProt P01304 35-45, looked up, range 26-36; Range counted on the mature peptide) [porcine NPY26-36]" observed_value=380
